# Method Notes: Plasma stability of prodrugs (bioconversion to parent drug)
# Assay type: in vitro ADME
# Experimental Parameters: Table 11, 0.1 h
# Protocol: Approximately 1 mg/mL of stock solution of each prodrug was prepared in 100 μL of ethanol and 900 μL of acetonitrile. Next, 10 μL of stock was spiked into 1 mL of plasma and vortexed. The samples were kept sealed in an amber vial and samples were obtained to analyze for bioconversion to parent drug. An approximated 1 mg/mL stock solution of each prodrug was prepared in 100 μL of ethanol and 900 μL of acetonitrile. Next, 10 μL of stock was spiked into 1 mL of plasma and vortexed. […]
Here, each record is paired with measured % Prodrug at time (h) data.
Enter your answer as a number in %; do not include the unit.

Molecule | U | Measurement
CCCCCc1cc(OC(=O)CNC=O)c2c(c1)OC(C)(C)[C@@H]1CCC(C)=C[C@@H]21 | % | 70
CCCCCc1cc(OC(=O)CN(C)C=O)c2c(c1)OC(C)(C)[C@@H]1CCC(C)=C[C@@H]21 | % | 100
CCCCCc1cc(OC(=O)CN(C)C)c2c(c1)OC(C)(C)[C@@H]1CCC(C)=C[C@@H]21 | % | 100

Input line: Hello, please tell me recorded % Prodrug at time (h) for this one: CCCCCc1cc(OC(=O)CCC(=O)O)c2c(c1)OC(C)(C)[C@@H]1CCC(C)=C[C@@H]21 [ALL00123, Δ^9-Tetrahydrocannabinol hemisuccinate]
Output line: 0
